These data points were gathered from patent US7179825B2.

Tested on: metabolism of retinoic acid in human breast cancer cells
Method Summary: Inhibition of retinoic acid (RA) metabolism (Example C.1)
Assay type: cell-based
Experimental Conditions: MCF-7 human breast cancer cells, 3H-RA as substrate; concentration needed to reduce the amount of metabolites to 50% of the control
pIC50: −log10 of the molar value.

{"Molecule": "O=C(C=C(c1ccccc1)c1cccnc1)Nc1ccc(C(c2ccc(F)cc2)n2ccnc2)cc1 (racemic) [Compound 517]", "pIC50": 7.43}
{"Molecule": "CC(C)C(c1ccc(NC(=O)/C=C/c2ccccc2)cc1)n1ccnc1 (racemic) [Compound 502]", "pIC50": 7.48}
{"Molecule": "CC(=O)Nc1ccc(C2(n3ccnc3)CCCCC2)cc1 [Compound 776]", "pIC50": 8.36}
{"Molecule": "CCC(CC)C(c1ccc(NC(=O)CCCc2ccc(OC)c(OC)c2)cc1)n1ccnc1 (racemic) [Compound 52]", "pIC50": 9.04}

###

Test system: metabolism of retinoic acid in human breast cancer cells
Method Summary: Inhibition of retinoic acid (RA) metabolism (Example C.1)
Type: cell-based
Experimental Conditions: MCF-7 human breast cancer cells, 3H-RA as substrate; concentration needed to reduce the amount of metabolites to 50% of the control
List of IC50 values.

{"Molecule": "C/C(=C\\C(C)C)C(=O)Nc1ccc(C(C(C)C)n2ccnc2)cc1 (stereo not shown) [Compound 588]", "Value Comparator": "=", "IC50 [nM]": 48.8}
{"Molecule": "CC(C)C(c1ccc(NC(=O)Nc2cnccn2)cc1)n1ccnc1 (racemic) [Compound 271]", "Value Comparator": "=", "IC50 [nM]": 2.45}
{"Molecule": "CC(C(c1ccc(NC(=O)Cc2ccc(O)c(Cl)c2)cc1)n1ccnc1)N(C)C (single isomer, unassigned) [Compound 303]", "Value Comparator": "=", "IC50 [nM]": 3.26}
{"Molecule": "CCOc1ccc(CC(=O)Nc2ccc(C(C(CC)CC)n3ccnc3)cc2)cc1Cl (racemic) [Compound 118]", "Value Comparator": "=", "IC50 [nM]": 2.24}
{"Molecule": "COc1cccc(/C=C(\\C)C(=O)Nc2ccc(C(C(C)C)n3ccnc3)cc2)c1 (stereo not shown) [Compound 584]", "Value Comparator": "=", "IC50 [nM]": 6.51}
{"Molecule": "CC(C)C(c1ccc(NC(=O)NCc2ccccc2)cc1)n1ccnc1 (stereo not shown) [Compound 269]", "Value Comparator": "=", "IC50 [nM]": 2.66}
{"Molecule": "C/C(=C\\Cc1ccccc1)C(=O)Nc1ccc(C(C(C)C)n2ccnc2)cc1 (racemic) [Compound 589]", "Value Comparator": "=", "IC50 [nM]": 2.75}
{"Molecule": "Cc1nccn1C(c1ccc(NC(=O)Nc2cccc(F)c2)cc1)C(C)C (stereo not shown) [Compound 773]", "Value Comparator": ">", "IC50 [nM]": 100}
{"Molecule": "CCOc1ccc(CC(=O)Nc2ccc(C(C(CC)CC)n3cncn3)cc2)cc1OCC (racemic) [Compound 82]", "Value Comparator": "=", "IC50 [nM]": 1.16}
{"Molecule": "CC(C)C(c1ccc(NC(=O)CC2COc3ccccc3O2)cc1)n1ccnc1 (racemic) [Compound 237]", "Value Comparator": "=", "IC50 [nM]": 18.2}
{"Molecule": "CCCCCC(CC)C(c1ccc(NC(=O)C(C)=Cc2ccccc2)cc1)n1ccnc1 (single isomer, unassigned) [Compound 492]", "Value Comparator": "=", "IC50 [nM]": 4.07}
{"Molecule": "O=C(Cc1ccccc1)Nc1ccc(C(c2cccc(F)c2)n2cncn2)cc1 (racemic) [Compound 619]", "Value Comparator": "=", "IC50 [nM]": 35.7}
{"Molecule": "CC(C)C(c1ccncc1)c1ccc(NC(=O)Nc2cccc(F)c2)cc1 (racemic) [Compound 692]", "Value Comparator": "=", "IC50 [nM]": 38}
{"Molecule": "CCC(CC)C(c1ccc(NC(=O)Cc2cccc(O)c2)cc1)n1ccnc1 (stereo not shown) [Compound 781]", "Value Comparator": "=", "IC50 [nM]": 3.24}
{"Molecule": "CC(C)C(c1ccc(NC(N)=Nc2ccccc2)cc1)n1ccnc1 (stereo not shown) [Compound 743]", "Value Comparator": "=", "IC50 [nM]": 11}
{"Molecule": "CC(=Cc1cc2ccccc2o1)C(=O)Nc1ccc(C(C(C)C)n2ccnc2)cc1 (stereo not shown) [Compound 600]", "Value Comparator": "=", "IC50 [nM]": 36.7}

###

Tested on: metabolism of retinoic acid in human breast cancer cells
Method Summary: Inhibition of retinoic acid (RA) metabolism (Example C.1)
Type: cell-based
Experimental Conditions: MCF-7 human breast cancer cells, 3H-RA as substrate; concentration needed to reduce the amount of metabolites to 50% of the control
pIC50: −log10 of the molar value.
Mark Criterion met for reported pIC50 of 9 or greater; mark Criterion not met for anything smaller.

{"Compound": "CCC(CC)C(c1ccc(NC(=O)Cc2ccc(O)c(Cl)c2)cc1)n1ccnc1 (racemic) [Compound 117]", "Class Assignment": "Criterion met"}
{"Compound": "CC(C)C(c1ccc(NC(=O)C(O)c2ccc(Cl)cc2)cc1)n1ccnc1 (stereo not drawn) [Compound 669]", "Class Assignment": "Criterion not met"}
{"Compound": "C/C(=C\\c1ccccc1)C(=O)Nc1ccc(C(c2ccncc2)C(C)C)cc1 (racemic) [Compound 681]", "Class Assignment": "Criterion not met"}
{"Compound": "Cc1ccoc1C(=O)Nc1ccc(C(C(C)C)n2ccnc2)cc1 (racemic) [Compound 226]", "Class Assignment": "Criterion not met"}
{"Compound": "CCC(CC)C(c1ccc(NC(=O)/C(C)=C/c2ccccc2)cc1)n1cncn1 (racemic) [Compound 2]", "Class Assignment": "Criterion met"}
{"Compound": "CCC(CC)C(c1ccc(NC(=O)Cc2cccc(O)c2)cc1)n1ccnc1.O=C(O)C(=O)O (racemic) [Compound 109]", "Class Assignment": "Criterion met"}
{"Compound": "CCC(CC)C(c1ccc(NC(=O)Cc2cccc(O)c2)cc1)n1cncn1 (racemic) [Compound 67]", "Class Assignment": "Criterion met"}
{"Compound": "CCC(C(c1ccc(NC(=O)Cc2ccc(OC)c(OC)c2)cc1)n1cncn1)N(C)C (single isomer, unassigned) [Compound 646]", "Class Assignment": "Criterion not met"}
{"Compound": "CC(C(c1ccc(NC(=O)CN2CCN(C)CC2)cc1)n1ccnc1)N(C)C (single isomer, unassigned) [Compound 353]", "Class Assignment": "Criterion not met"}
{"Compound": "CCC(CC)C(c1ccc(NC(=O)Cc2cc(OC)ccc2OCc2ccccc2)cc1)n1ccnc1 (racemic) [Compound 120]", "Class Assignment": "Criterion not met"}
{"Compound": "CC(=O)Nc1ccc(C(c2cccc(C(F)(F)F)c2)n2cncn2)cc1 (stereo not drawn) [Compound 613]", "Class Assignment": "Criterion not met"}
{"Compound": "CC(C)C(c1ccc(NC(=O)c2ccoc2)cc1)n1ccnc1 (racemic) [Compound 172]", "Class Assignment": "Criterion not met"}
{"Compound": "O=C(Nc1ccc(C(c2ccccc2)n2ccnc2)cc1)C1COc2ccccc2O1 (stereo not drawn) [Compound 425]", "Class Assignment": "Criterion not met"}
{"Compound": "CN(C)CC(c1ccc(NC(=O)Oc2ccccc2)cc1)n1ccnc1 (racemic) [Compound 435]", "Class Assignment": "Criterion not met"}
{"Compound": "CC(=Cc1cccc(Cl)c1)C(=O)Nc1ccc(C(C(C)C)n2cncn2)cc1 (racemic) [Compound 156]", "Class Assignment": "Criterion not met"}
{"Compound": "CC(C)C(c1ccc(NC(=O)C2(c3ccccc3)CCCCC2)cc1)n1ccnc1 (stereo not drawn) [Compound 200]", "Class Assignment": "Criterion not met"}
{"Compound": "CCC(CC)C(c1ccc(NC(=O)CCCc2ccc(OC)c(OC)c2)cc1)n1cncn1 (stereo not drawn) [Compound 8]", "Class Assignment": "Criterion met"}
{"Compound": "CC(C)C(c1ccc(NC(=O)c2ccc[nH]c2=O)cc1)n1ccnc1 (racemic) [Compound 228]", "Class Assignment": "Criterion not met"}
{"Compound": "COc1ccc(CCCC(=O)Nc2ccc(C(C(C)N(C)C)n3ccnc3)cc2)cc1OC (single isomer, unassigned) [Compound 336]", "Class Assignment": "Criterion not met"}
{"Compound": "CC(=O)Nc1ccc(/C=C(\\C)C(=O)Nc2ccc(C(C(C)C)n3ccnc3)cc2)cc1 (stereo not drawn) [Compound 612]", "Class Assignment": "Criterion not met"}
{"Compound": "CC(Sc1ccccc1)C(c1ccc(NC(=O)Cc2ccc(Cl)cc2)cc1)n1ccnc1 (single isomer, unassigned) [Compound 376]", "Class Assignment": "Criterion met"}
{"Compound": "CCC(C(c1ccc(NC(C)=O)cc1)n1cncn1)N(C)C (single isomer, unassigned) [Compound 645]", "Class Assignment": "Criterion not met"}
{"Compound": "CC(=Cc1ccccc1)C(=O)Nc1ccc(C(C(C)Sc2ccccc2)n2ccnc2)cc1 (single isomer, unassigned) [Compound 484]", "Class Assignment": "Criterion not met"}
